procedure text: Single dose plasma pharmacokinetics in CD1 mice
Type: in vivo, mouse
applied conditions: male, CD1, mouse; plasma, IV 10 mg/kg
assay readout: AUC(0-inf) (ng·h/mL)
One number for each entry, in ng·h/mL.

Could you share which AUC(0-inf) value was measured for Cl.Cl.N#Cc1ccc(/C=C2/C(=O)/C(=C/c3ccc(C#N)cc3)C23CCN(C(=N)N)CC3)cc1 ?
2780

----------
procedure text: Single dose plasma pharmacokinetics in CD1 mice
Format: in vivo, mouse
applied conditions: male, CD1, mouse, plasma, ip, 40 mg/kg, IP 40 mg/Kg, 240 min; read-out: Plasma concentration, Mean
Description: For single dose pharmacokinetic studies, plasma samples (40 μL) were mixed with 200 μL of a water-methanol (1:9, v/v) containing the internal standard elacridar at 80 ng/mL. […] The lower limit of quantitation (LLOQ) in plasma was 10 ng/mL. Pharmacokinetic parameters were calculated from mean concentration-time data using non-compartmental methods in Phoenix WinNonlin version 8.3 (Certara, Princeton, NJ). […] The AUClast was calculated using the log-linear trapezoidal method. […]
assay readout: concentration at 240 min (ng/mL)
One number for each entry, in ng/mL.

Could you share which concentration at 240 min value was measured for Cl.Cl.N#Cc1ccc(/C=C2/C(=O)/C(=C/c3ccc(C#N)cc3)C23CCN(C(=N)N)CC3)cc1 ?
508
